The reader will find reported Pe values listed item by item below.
Assay: PAMPA-BBB permeation assay
Conditions: Table 3
Number only, in ×10⁻⁶ cm/s; omit the unit.

Examples from the recorded data:
# Given Smiles, Endpoint Value
rows = [
    ("COc1ccc(/C=C/C(=O)N2CCc3ccccc3C2)cc1OC", 20.4),
    ("C#CCOc1ccc(/C=C/C(=O)N2CCc3ccccc3C2)cc1OC", 12.5),
    ("COc1cc(/C=C/C(=O)N2CCC(Cc3ccccc3)CC2)ccc1OC1CCCCC1", 18.2),
]

The measured Pe associated with `COc1cc(/C=C/C(=O)N2CCc3ccccc3C2)ccc1OC1CCCCC1` reads 16.7

The compound `C#CCOc1ccc(/C=C/C(=O)N2CCC(Cc3ccccc3)CC2)cc1OC` showed Pe equal to 14.7

Value source: paper PMC9116242
